- Tested on: rodent lifetime carcinogenesis bioassay, tumor incidence TD50
- Protocol text: carcinogenic potency in animals, long-term in vivo studies, CPDB compilation (AID 1745844)
- Cond: mouse; strain B6C3F1; males; inhaled; site: all sites; lesion: hemangioma + hemangiosarcoma; dosed 95 weeks; study length 95 weeks

[
  {
    "Smiles text": "FC(F)=C(F)F",
    "Tested target": "rodent lifetime carcinogenesis bioassay, tumor incidence TD50",
    "TD50 / mg/kg/day": 88.3
  }
]

---

- Tested on: rodent lifetime carcinogenesis bioassay, tumor incidence TD50
- Protocol text: carcinogenic potency in animals, long-term in vivo studies, CPDB compilation (AID 1745844)
- Cond: rat; strain Fischer 344; females; in drinking water; site: thyroid follicle; lesion: several types; types named in the paper; dosed 80 weeks; study length 130 weeks
Calls of active or inactive are those of the source. No rule for the calls is given here.

[
  {
    "Smiles text": "CN(C)CCN(Cc1ccsc1)c1ccccn1",
    "TD50": "10700 mg/kg/day (inactive)"
  }
]

---

- Test system: rodent lifetime carcinogenesis bioassay, tumor incidence TD50
- Protocol text: carcinogenic potency in animals, long-term in vivo studies, CPDB compilation (AID 1745844)
- Cond: rat; strain Fischer 344; males; in feed; site: liver; lesion: neoplastic nodule; dosed 103 weeks; study length 104 weeks
Active and inactive are the calls of the source. The rule behind the calls is not given here.
Experimental endpoint: TD50

[
  {
    "Smiles text": "CC(=O)Nc1ccc(N=Nc2cc(C)ccc2O)cc1",
    "Tested target": "rodent lifetime carcinogenesis bioassay, tumor incidence TD50",
    "Experimental endpoint": "TD50",
    "Val": "380 mg/kg/day"
  },
  {
    "Smiles text": "N=C1C=CC(=C(c2ccc(N)cc2)c2ccc(N)cc2)C=C1",
    "Tested target": "rodent lifetime carcinogenesis bioassay, tumor incidence TD50",
    "Experimental endpoint": "TD50",
    "Val": "62.2 mg/kg/day"
  },
  {
    "Smiles text": "CN(C)C(=O)Nc1cccc(C(F)(F)F)c1",
    "Tested target": "rodent lifetime carcinogenesis bioassay, tumor incidence TD50",
    "Experimental endpoint": "TD50",
    "Val": "55.4 mg/kg/day (inactive)"
  },
  {
    "Smiles text": "CNc1ccc(N(CCO)CCO)cc1[N+](=O)[O-]",
    "Tested target": "rodent lifetime carcinogenesis bioassay, tumor incidence TD50",
    "Experimental endpoint": "TD50",
    "Val": "1660 mg/kg/day"
  },
  {
    "Smiles text": "Oc1ccc2ccccc2c1N=Nc1ccccc1",
    "Tested target": "rodent lifetime carcinogenesis bioassay, tumor incidence TD50",
    "Experimental endpoint": "TD50",
    "Val": "17.7 mg/kg/day"
  },
  {
    "Smiles text": "Cc1cc(N=Nc2c(O)ccc3ccccc23)c(S(=O)(=O)O)cc1Cl",
    "Tested target": "rodent lifetime carcinogenesis bioassay, tumor incidence TD50",
    "Experimental endpoint": "TD50",
    "Val": "265 mg/kg/day"
  },
  {
    "Smiles text": "Brc1c(Br)c(Br)c(Oc2c(Br)c(Br)c(Br)c(Br)c2Br)c(Br)c1Br",
    "Tested target": "rodent lifetime carcinogenesis bioassay, tumor incidence TD50",
    "Experimental endpoint": "TD50",
    "Val": "2130 mg/kg/day"
  }
]

---

- Tested on: rodent lifetime carcinogenesis bioassay, tumor incidence TD50
- Protocol text: carcinogenic potency in animals, long-term in vivo studies, CPDB compilation (AID 1745844)
- Cond: rat; strain Fischer 344; females; by gavage; site: any site (literature study); lesion: several types; types named in the paper; dosed 102 weeks; study length 104 weeks

[
  {
    "Smiles text": "C=C1C/C(=C/C)C(=O)O[C@@H]2CCN3CC=C(COC(=O)[C@@]1(O)CO)[C@H]23",
    "TD50 (mg/kg/day)": 0.0706
  }
]

---

- Test system: rodent lifetime carcinogenesis bioassay, tumor incidence TD50
- Protocol text: carcinogenic potency in animals, long-term in vivo studies, CPDB compilation (AID 1745844)
- Cond: rat; strain Donryu; females; in drinking water; site: all sites; lesion: myelocytic leukemia; dosed 65 weeks; study length 65 weeks
Experimental endpoint: TD50

[
  {
    "Smiles text": "CCCCCN(N=O)C(N)=O",
    "Experimental endpoint": "TD50",
    "Val": "19.9 mg/kg/day"
  }
]

---

- System: rodent lifetime carcinogenesis bioassay, tumor incidence TD50
- Protocol text: carcinogenic potency in animals, long-term in vivo studies, CPDB compilation (AID 1745844)
- Cond: hamster; strain Syrian Golden; females; inhaled; site: all sites; lesion: hemangiosarcoma; dosed 52 weeks; study length 104 weeks

[
  {
    "Smiles text": "C=CCl",
    "Tested target": "rodent lifetime carcinogenesis bioassay, tumor incidence TD50",
    "TD50": "314 mg/kg/day"
  }
]

---

- System: rodent lifetime carcinogenesis bioassay, tumor incidence TD50
- Protocol text: carcinogenic potency in animals, long-term in vivo studies, CPDB compilation (AID 1745844)
- Cond: hamster; strain Syrian Golden; males; in drinking water; site: larynx; lesion: several types; types named in the paper; dosed 104 weeks; study length 104 weeks
Experimental endpoint: TD50

[
  {
    "Smiles text": "O=NN1CCOCC1",
    "Val": "11.5 mg/kg/day"
  }
]

---

- Tested on: rodent lifetime carcinogenesis bioassay, tumor incidence TD50
- Protocol text: carcinogenic potency in animals, long-term in vivo studies, CPDB compilation (AID 1745844)
- Cond: rat; strain Fischer 344; males; in feed; site: liver; lesion: hepatocellular carcinoma; dosed 70 weeks; study length 71 weeks

[
  {
    "Smiles text": "C[C@@H]1C[C@H](C)CN(S(=O)(=O)c2ccc(Cl)c(C(=O)O)c2)C1",
    "TD50": "4.85 mg/kg/day"
  }
]

---

- System: rodent lifetime carcinogenesis bioassay, tumor incidence TD50
- Protocol text: carcinogenic potency in animals, long-term in vivo studies, CPDB compilation (AID 1745844)
- Cond: mouse; strain B6C3F1; females; by gavage; site: any site (literature study); lesion: several types; types named in the paper; dosed 91 weeks; study length 104 weeks

[
  {
    "Smiles text": "ClCc1cccnc1",
    "TD50, mg/kg/day": 141
  }
]

---

- Test system: rodent lifetime carcinogenesis bioassay, tumor incidence TD50
- Protocol text: carcinogenic potency in animals, long-term in vivo studies, CPDB compilation (AID 1745844)
- Cond: mouse; strain Swiss; males; i.p.; site: all sites; lesion: lymphosarcoma; dosed 26 weeks; study length 78 weeks
Entries and their TD50

[
  {
    "Smiles text": "CN(C)N=Nc1nc[nH]c1C(N)=O",
    "TD50": "16.1 mg/kg/day"
  },
  {
    "Smiles text": "O[C@H]([C@H](O)[C@@H](O)CBr)[C@H](O)CBr",
    "TD50": "17.6 mg/kg/day"
  }
]

---

- Tested on: rodent lifetime carcinogenesis bioassay, tumor incidence TD50
- Protocol text: carcinogenic potency in animals, long-term in vivo studies, CPDB compilation (AID 1745844)
- Cond: rat; strain Sprague-Dawley; females; inhaled; site: mammary gland; lesion: adenocarcinoma; dosed 52 weeks; study length 111 weeks
Experimental endpoint: TD50

[
  {
    "Smiles text": "C=CCl",
    "Experimental endpoint": "TD50",
    "Val": "5.91 mg/kg/day"
  }
]

---

- Tested on: rodent lifetime carcinogenesis bioassay, tumor incidence TD50
- Protocol text: carcinogenic potency in animals, long-term in vivo studies, CPDB compilation (AID 1745844)
- Cond: rat; strain Fischer 344; females; in drinking water; site: all sites; lesion: mononuclear-cell leukemia; dosed 104 weeks; study length 104 weeks
Experimental endpoint: TD50 (mg/kg/day)

[
  {
    "Smiles text": "c1ccncc1",
    "Val": 31.2
  }
]

---

- System: rodent lifetime carcinogenesis bioassay, tumor incidence TD50
- Protocol text: carcinogenic potency in animals, long-term in vivo studies, CPDB compilation (AID 1745844)
- Cond: mouse; strain B6C3F1; males; oral dosing; site: any site (literature study); lesion: several types; types named in the paper; dosed 58 weeks; study length 58 weeks
Experimental endpoint: TD50 (mg/kg/day)

[
  {
    "Compound": "ClC1(Cl)C2(Cl)C3(Cl)C4(Cl)C(Cl)(Cl)C5(Cl)C3(Cl)C1(Cl)C5(Cl)C24Cl (stereo unspecified)",
    "Tested target": "rodent lifetime carcinogenesis bioassay, tumor incidence TD50",
    "Val": 1.5
  }
]

---

- Test system: rodent lifetime carcinogenesis bioassay, tumor incidence TD50
- Protocol text: carcinogenic potency in animals, long-term in vivo studies, CPDB compilation (AID 1745844)
- Cond: hamster; strain Syrian Golden; females; in drinking water; site: cecum; lesion: one or several types; types not named; dosed 108 weeks; study length 108 weeks
Active and inactive are the calls of the source. The rule behind the calls is not given here.

[
  {
    "Smiles text": "O=S(=O)(O)O",
    "TD50": "115 mg/kg/day (inactive)"
  }
]

// provenance: PubChem BioAssay AID1745844
